target: human serotonin reuptake transporter (Homo sapiens); test: cell-based; settings: recombinant human serotonin transporter (SERT); read-out: Human IC50 (nM) hSERT
Sequence (P31645 whole entry): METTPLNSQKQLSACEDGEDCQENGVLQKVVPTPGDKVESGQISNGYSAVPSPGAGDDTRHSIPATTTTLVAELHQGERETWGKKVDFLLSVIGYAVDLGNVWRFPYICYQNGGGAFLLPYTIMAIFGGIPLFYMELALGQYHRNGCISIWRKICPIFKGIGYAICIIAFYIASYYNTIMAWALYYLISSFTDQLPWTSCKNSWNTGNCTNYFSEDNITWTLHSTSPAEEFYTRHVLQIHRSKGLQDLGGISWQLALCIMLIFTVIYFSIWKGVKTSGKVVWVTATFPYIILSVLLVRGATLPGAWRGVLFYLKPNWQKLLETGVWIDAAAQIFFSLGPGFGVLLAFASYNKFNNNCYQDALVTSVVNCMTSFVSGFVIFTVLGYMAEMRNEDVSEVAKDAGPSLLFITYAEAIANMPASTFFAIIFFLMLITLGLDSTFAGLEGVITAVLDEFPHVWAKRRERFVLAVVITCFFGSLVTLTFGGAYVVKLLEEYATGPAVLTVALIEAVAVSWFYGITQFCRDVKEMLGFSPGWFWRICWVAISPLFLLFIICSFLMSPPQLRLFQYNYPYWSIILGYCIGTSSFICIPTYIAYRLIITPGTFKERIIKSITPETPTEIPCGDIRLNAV
Counter-ions that a name gives are not always drawn.
Could you mark each record Yes if its IC50 falls strictly under 500 nM, and No if it equals or exceeds it?

The examples below pair each entry with its known result.
INSERT INTO results (compound, qualitative_label) VALUES
  ('CNCC1(c2ccc(Cl)c(Cl)c2)CCC1', 'No'),
  ('CC(N(C)C)C1(c2ccc3ccccc3c2)CCC(C)(O)CC1 (single isomer, unassigned) [234 E1]', 'No'),
  ('CNCC1(c2ccc(Cl)cc2)CCCCC1O (single isomer, unassigned) [136 E2]', 'No'),
  ('CNCC1(c2ccc(Cl)c(Cl)c2)CCC(F)(F)CC1', 'No'),
  ('CC(N(C)C)C1(c2cccc3ccccc23)CCCCC1 (single isomer, unassigned) [60 E1]', 'Yes');

Asked: Check if IC50 falls below 500 nM for NCC1(c2ccc3ccccc3c2)CCC(O)CC1 (stereo not drawn) [Compound 207] .
Given back: Yes

Asked: Is 500 nM strictly greater than the compound's reported IC50? compound: CNCC1(c2ccc3ccccc3c2)CCC(O)(CF)CC1 (stereo not drawn) [Compound 245]
Given back: No

Asked: hey, is IC50 for NCC1(c2ccc3ccccc3c2)CC=CCC1 (racemic) lower than 500 nM or not?
Given back: Yes

Asked: Does the reported IC50 of NCC1(c2ccc(Cl)cc2)CCCCC1 [Compound 29, hydrochloride] stay below 500 nM?
Given back: No

====

Measured % Transporter Occupancy, NET by item
biological target: Norepinephrine Transporter (NET) Sites in Mouse Brain (Mus musculus, UniProt O55192); settings: 1 mg/kg, PO; 60 minutes after treatment; vs vehicle
Sequence (O55192 whole entry): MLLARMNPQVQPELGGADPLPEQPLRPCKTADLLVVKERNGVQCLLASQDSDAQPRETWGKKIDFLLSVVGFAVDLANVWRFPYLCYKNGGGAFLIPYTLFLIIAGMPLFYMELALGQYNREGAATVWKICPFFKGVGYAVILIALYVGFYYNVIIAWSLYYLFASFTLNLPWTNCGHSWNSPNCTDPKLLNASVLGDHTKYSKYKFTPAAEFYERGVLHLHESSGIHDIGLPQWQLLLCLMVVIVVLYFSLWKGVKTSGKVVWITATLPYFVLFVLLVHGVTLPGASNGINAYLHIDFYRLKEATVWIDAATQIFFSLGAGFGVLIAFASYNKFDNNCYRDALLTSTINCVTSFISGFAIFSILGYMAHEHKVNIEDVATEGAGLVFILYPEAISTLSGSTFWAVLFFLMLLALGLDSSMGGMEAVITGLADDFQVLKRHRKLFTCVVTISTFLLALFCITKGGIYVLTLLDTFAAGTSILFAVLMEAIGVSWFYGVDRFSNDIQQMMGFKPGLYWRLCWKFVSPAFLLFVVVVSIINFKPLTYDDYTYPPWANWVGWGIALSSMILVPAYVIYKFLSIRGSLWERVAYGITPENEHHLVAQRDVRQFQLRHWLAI
A bare number is not enough; add the unit after it.

Below, 3 compounds whose answers are already recorded.
INSERT INTO results (compound, result) VALUES
  ('CNCC1(c2ccc(Cl)c(Cl)c2)CCC(C)(O)CC1 (stereo not shown)', '-4%'),
  ('CN(C)C[C@]1(c2ccc3ccccc3c2)CC[C@](C)(O)CC1', '25%'),
  ('CN(C)CC1(c2ccc(Cl)c(Cl)c2)CCC(C)(O)CC1 (stereo not shown)', '6%');

Asked: Form field: reported % Transporter Occupancy, NET of CC(N(C)C)C1(c2ccc3ccccc3c2)CCCCC1 (single isomer, unassigned) [56 E1]
Given back: 20%

====

As shown below, each of these compounds has a reported IC50 value.
target: human dopamine reuptake transporter (Homo sapiens, UniProt Q01959); construct: expressed in transfected cells; host or cells: CHO-K1 or HEK293; assay: cell-based; conditions: recombinant human dopamine transporter (DAT); read-out: Human IC50 (nM) hDAT
Sequence (Q01959 whole entry): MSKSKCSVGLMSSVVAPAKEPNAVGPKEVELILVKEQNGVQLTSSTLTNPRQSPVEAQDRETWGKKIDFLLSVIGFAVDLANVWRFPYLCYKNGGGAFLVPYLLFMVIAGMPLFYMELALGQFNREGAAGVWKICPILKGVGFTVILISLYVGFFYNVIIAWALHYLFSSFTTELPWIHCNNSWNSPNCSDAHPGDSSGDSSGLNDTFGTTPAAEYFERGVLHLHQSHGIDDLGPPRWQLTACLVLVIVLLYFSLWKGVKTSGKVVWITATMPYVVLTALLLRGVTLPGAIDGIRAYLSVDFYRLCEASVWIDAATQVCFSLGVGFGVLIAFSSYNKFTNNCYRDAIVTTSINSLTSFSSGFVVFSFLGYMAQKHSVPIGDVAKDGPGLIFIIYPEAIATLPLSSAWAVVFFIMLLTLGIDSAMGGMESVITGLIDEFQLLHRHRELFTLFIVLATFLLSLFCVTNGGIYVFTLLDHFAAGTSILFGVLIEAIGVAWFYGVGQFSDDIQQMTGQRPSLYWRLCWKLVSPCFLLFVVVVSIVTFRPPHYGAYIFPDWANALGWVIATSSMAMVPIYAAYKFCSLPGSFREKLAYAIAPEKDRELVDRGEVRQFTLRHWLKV
Number only, in nM; omit the unit.

INSERT INTO results (compound, endpoint_label, scale_unit, quantitative_result) VALUES
  ('NC[C@]1(c2ccc(Cl)c(Cl)c2)CC[C@H](O)CC1', 'IC50', 'nM', 720);

Asked: What value of IC50 on human dopamine reuptake transporter (Homo sapiens, UniProt Q01959) does NCC1(c2ccc3ccccc3c2)CCC(O)(CF)CC1 (centres unmarked) [Compound 217] have?
Given back: 1970

====

target: human dopamine reuptake transporter (Homo sapiens); construct: expressed in transfected cells; host or cells: CHO-K1 or HEK293; test: cell-based; details: Human IC50 (nM) hDAT
The label is 1 for IC50 below 100 nM and 0 for IC50 equal to or exceeding 100 nM.

The following molecules have reported results that may help.
INSERT INTO measurements (molecule, qualitative_label) VALUES
  ('CNC(C)C1(c2ccc(OC(F)(F)F)cc2)CCCCC1 (single isomer, unassigned) [64 E1]', 0),
  ('CNCC1(c2ccc3ccccc3c2)CC=CCC1 (racemic)', 1),
  ('CN(C)CC1(c2ccc(Cl)c(Cl)c2)CCC(F)CC1 (stereo not drawn)', 1),
  ('NCC1(c2ccc(Cl)c(Cl)c2)CC=CCC1 (stereo not drawn)', 0);

Asked: Take the molecule CNC(C)C1(c2ccc(OC(F)(F)F)cc2)CCCCC1 (single isomer, unassigned) [64 E2] and say whether its IC50 is less than 100 nM.
Given back: 0

Asked: Just wondering, is IC50 of `CSc1ccc(C2(CN(C)C)CCCCC2)cc1` below 100 nM?
Given back: 0

====

The entries below are paired with their reported IC50.
target: serotonin transporter (Rattus norvegicus, UniProt P31652); construct: synaptosomes isolated in a 0.32M sucrose buffer from a male Wistar rat cortex; from tissue; host or cells: male Wistar rat cortex synaptosomes; assay: biochemical; conditions: read-out: Rat IC50 (nM) rSERT; rat synaptosomes, serotonin transporter (SERT)
Sequence (P31652 whole entry): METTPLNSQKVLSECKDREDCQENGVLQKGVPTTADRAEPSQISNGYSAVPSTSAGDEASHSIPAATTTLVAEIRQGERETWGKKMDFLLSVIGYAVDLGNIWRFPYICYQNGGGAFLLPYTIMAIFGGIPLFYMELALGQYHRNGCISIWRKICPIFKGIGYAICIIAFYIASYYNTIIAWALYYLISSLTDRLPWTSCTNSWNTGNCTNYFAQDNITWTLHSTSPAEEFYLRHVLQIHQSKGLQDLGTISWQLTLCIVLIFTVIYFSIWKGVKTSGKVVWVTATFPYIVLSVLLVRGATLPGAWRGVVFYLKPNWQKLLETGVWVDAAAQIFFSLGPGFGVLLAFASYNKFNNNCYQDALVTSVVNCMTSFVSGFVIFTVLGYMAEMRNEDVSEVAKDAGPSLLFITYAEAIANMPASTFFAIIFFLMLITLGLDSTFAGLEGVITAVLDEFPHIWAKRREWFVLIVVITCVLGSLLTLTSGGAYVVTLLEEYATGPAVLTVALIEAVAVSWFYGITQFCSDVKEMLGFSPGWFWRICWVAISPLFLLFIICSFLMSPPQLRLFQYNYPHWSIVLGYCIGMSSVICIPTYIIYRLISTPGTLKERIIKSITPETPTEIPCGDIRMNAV
All answers are understood in nM, so give the number only.

Recorded IC50, per entry:
INSERT INTO measurements (compound, quantitative_result) VALUES
  ('CNC[C@@]1(c2ccc3ccccc3c2)CCCC[C@H]1O (single isomer, unassigned) [147 E1]', 18),
  ('CNC[C@]1(c2ccc3ccccc3c2)CCCC[C@@H]1O (single isomer, unassigned) [147 E2]', 1700);

Asked: Need IC50, item CNC[C@@]1(c2ccc3ccccc3c2)CCCC[C@@H]1O (single isomer, unassigned) [148 E2]
Given back: 330

====

biological target: human dopamine reuptake transporter (Homo sapiens); construct: expressed in transfected cells; host or cells: CHO-K1 or HEK293; test: cell-based; conditions: recombinant human dopamine transporter (DAT); read-out: Human IC50 (nM) hDAT
Endpoint Label: IC50 (nM)
Kindly answer with a numeric value in nM, unit omitted.

INSERT INTO measurements (molecule, scale_unit, quantitative_result) VALUES
  ('CCC(N(C)C)C1(c2ccc(Cl)c(Cl)c2)CCCCC1 (single isomer, unassigned) [61 E2]', 'nM', 116),
  ('CN(C)CC1(c2ccc3c(c2)OCO3)CCC(C)(O)CC1 (centres unmarked) [Compound 240]', 'nM', 9030),
  ('CN(C)CC1(c2ccc3ccccc3c2)CCC(F)CC1 (centres unmarked) [Compound 233]', 'nM', 3),
  ('CNCC1(c2ccc(Cl)c(Cl)c2)CCC2(CC1)OCCO2', 'nM', 376),
  ('NCC1(c2ccc(C(F)(F)F)cc2)CCCCC1', 'nM', 5320),
  ('CNCC1(c2ccc3cc(F)ccc3c2)CCCCC1', 'nM', 1760),
  ('OC1Cc2ccccc2C1NCC1(c2ccc(Cl)c(Cl)c2)CCCCC1 (racemic)', 'nM', 285),
  ('CCCC1(O)CCC(CN(C)C)(c2ccc(Cl)c(Cl)c2)CC1 (centres unmarked)', 'nM', 198);

Asked: What IC50 appears in the records for this molecule with human dopamine reuptake transporter (Homo sapiens)? `CN(C)CC1(c2ccc(F)c3ccccc23)CCCCC1`
Given back: 214

Asked: Missing value: IC50, human dopamine reuptake transporter (Homo sapiens), entry `CN(C)CC1(c2ccc3c(c2)OCO3)CCCCC1` . Fill in?
Given back: 420

Asked: Which measured IC50 belongs to NCC1(c2ccc3ccccc3c2)CCC(Cl)CC1 (centres unmarked) , tested on human dopamine reuptake transporter (Homo sapiens)?
Given back: 195

Asked: Request body: readout IC50, system human dopamine reuptake transporter (Homo sapiens), query NCC1(c2ccc(Cl)c(Cl)c2)CCC(O)C1 (stereo not drawn) [cis 167] . Return the value.
Given back: 2220

Asked: Please state recorded IC50 (tested on human dopamine reuptake transporter (Homo sapiens)) of CCC1(O)CCC(CN(C)C)(c2ccc(Cl)c(Cl)c2)CC1 (centres unmarked) [Compound 280]
Given back: 242

Asked: Provide the documented IC50 with human dopamine reuptake transporter (Homo sapiens) as the system for CN(C)CC1(c2ccc(Cl)c(Cl)c2)CC=CCC1 (centres unmarked)
Given back: 1.7

Asked: Form entry - test system: human dopamine reuptake transporter (Homo sapiens); read-out: IC50; molecule: `NCC1(c2ccc(F)c(Cl)c2)CCCCC1`
Given back: 424

Asked: Return IC50 measured with human dopamine reuptake transporter (Homo sapiens) given this molecule: COC1CCCC(CN)(c2ccc(Cl)c(Cl)c2)C1 (single isomer, unassigned) [195 E2]
Given back: 5320

====

Below: a set of entries, each annotated with reported Mean Specific Binding (dpm) ± S.E.M., SERT.
target: 5-HT Transporter (SERT) Sites in Mouse Brain (Mus musculus, UniProt Q60857); construct: Whole brains were removed and cortex and striata dissected out; from tissue; host or cells: C57BL/6 mouse frontal cortex homogenate; assay: Ex vivo [3H] citalopram binding after oral dosing; parameters: species or system C57BL/6 mice; details: 10 mg/kg, mice sacrificed 60 minutes after treatment, cortex
Sequence (Q60857 whole entry): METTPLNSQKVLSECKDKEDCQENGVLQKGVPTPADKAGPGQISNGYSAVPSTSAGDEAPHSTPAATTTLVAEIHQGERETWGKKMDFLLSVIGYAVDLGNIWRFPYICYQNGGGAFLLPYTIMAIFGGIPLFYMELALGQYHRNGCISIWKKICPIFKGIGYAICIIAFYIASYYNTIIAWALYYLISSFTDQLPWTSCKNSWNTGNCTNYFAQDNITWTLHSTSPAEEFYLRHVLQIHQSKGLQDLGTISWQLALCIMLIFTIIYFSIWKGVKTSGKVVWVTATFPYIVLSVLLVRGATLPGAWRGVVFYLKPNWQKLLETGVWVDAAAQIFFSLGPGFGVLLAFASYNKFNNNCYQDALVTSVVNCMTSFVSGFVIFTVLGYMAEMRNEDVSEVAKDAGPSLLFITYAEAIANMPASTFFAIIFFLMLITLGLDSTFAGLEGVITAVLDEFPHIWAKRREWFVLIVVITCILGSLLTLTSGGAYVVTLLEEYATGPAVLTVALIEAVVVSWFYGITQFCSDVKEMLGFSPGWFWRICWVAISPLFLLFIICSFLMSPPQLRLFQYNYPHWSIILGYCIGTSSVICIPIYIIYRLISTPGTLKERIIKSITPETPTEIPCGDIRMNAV
Note: unit dpm is implicit; provide only the numeric part.

Take a look at these entries with their results.
INSERT INTO measurements (compound, scale_unit, quantitative_result) VALUES
  ('CC(N(C)C)C1(c2ccc3ccccc3c2)CCCCC1 (single isomer, unassigned) [56 E1]', 'dpm', 278),
  ('CNCC1(c2ccc(Cl)c(Cl)c2)CCC(C)(O)CC1 (centres unmarked) [Compound 276]', 'dpm', 3092),
  ('CN(C)CC1(c2ccc(Cl)c(Cl)c2)CCC(C)(O)CC1 (centres unmarked) [Compound 277]', 'dpm', 1416),
  ('CN(C)C[C@]1(c2ccc3ccccc3c2)CC[C@](C)(O)CC1 [Compound 225]', 'dpm', 904);

Turning to the following compound.
Asked: Query Mean Specific Binding (dpm) ± S.E.M., SERT on 5-HT Transporter (SERT) Sites in Mouse Brain (Mus musculus, UniProt Q60857) for CNC(C)C1(c2ccc3ccccc3c2)CCCCC1 (single isomer, unassigned) [58 E1]
Given back: 1799

The reported numbers originate from patent EP1976513B1.
